# system under test: T1, GST-KIAA1634 PDZ domain 2 (Homo sapiens (Human)), Q5TCQ9
# T1 chain: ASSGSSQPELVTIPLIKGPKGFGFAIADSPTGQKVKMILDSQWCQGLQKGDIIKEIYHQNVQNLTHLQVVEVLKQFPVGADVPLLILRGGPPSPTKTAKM
# assay method text: G' assay; also: key of the grades not given here

{"binder": "PIPAGGCTFSGIFPTLTSPL (modifications not checked) [KIA 1481]", "unit string": "A450 class", "Classification": 1}
{"binder": "KDITSDSENSNFRNEIQSLV (modifications not checked) [CD95]", "unit string": "A450 class", "Classification": 1}
{"binder": "IVTVVTMVTNVDFPPKESSL (modifications not checked) [ActRIIA]", "unit string": "A450 class", "Classification": 2}
{"binder": "SLKPGTVLPPPPYRHRNTVV (modifications not checked) [ErbB-4 receptor]", "unit string": "A450 class", "Classification": 1}
{"binder": "ESSGTQSPKRHSGSYLVTSV (modifications not checked) [APC-adenomatous polyposis coli protein]", "unit string": "A450 class", "Classification": 1}
{"binder": "TFAAGFNSTGLPHSTTRV (modifications not checked) [Neuroligin]", "unit string": "A450 class", "Classification": 2}
{"binder": "EDPKDRPSAAHIVEALETDV (modifications not checked) [PDZ-binding kinase (PBK)]", "unit string": "A450 class", "Classification": 3}
{"binder": "PYQSQGFSTEEDEDEQVSAV (modifications not checked) [RA-GEF (ras/rap1A-assoc-GEF)]", "unit string": "A450 class", "Classification": 2}
{"binder": "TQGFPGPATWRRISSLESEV (modifications not checked) [NMDA Glutamate Receptor 2C (cysteine-free)]", "unit string": "A450 class", "Classification": 3}
{"binder": "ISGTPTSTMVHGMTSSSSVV (modifications not checked) [Clasp-2]", "unit string": "A450 class", "Classification": 1}
{"binder": "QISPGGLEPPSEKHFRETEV (modifications not checked) [TAX]", "unit string": "A450 class", "Classification": 2}
{"binder": "HPTDITGLPNLSDPSVSTVV (modifications not checked) [NMDA R2C]", "unit string": "A450 class", "Classification": 1}
{"binder": "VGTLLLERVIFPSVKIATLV (modifications not checked) [AdenoE4 typ9]", "unit string": "A450 class", "Classification": 5}
{"binder": "DSDPENEPFDEDQHTQITKV (modifications not checked) [PTEN]", "unit string": "A450 class", "Classification": 5}
{"binder": "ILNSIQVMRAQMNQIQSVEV (modifications not checked) [ephrin B2]", "unit string": "A450 class", "Classification": 1}
{"binder": "DTLLLTENEGDKTEEQVSYV (modifications not checked) [serotonin receptor 5HT-2B]", "unit string": "A450 class", "Classification": 5}
